- RUN_DESCRIPTION: Half-life in aqueous buffer (0.05 M bistris, pH 6.9) in the presence of trypsin (2.5 ug/ml) was determined at 25 degree C
- Type: ADME
MEASURED_ATTRIBUTE: half-life (min)
Write down the numeric answer in min and omit the unit.

Quick note, half-life for CC(C)(C)OC(=O)NC(CCCCN)C(=O)Nc1ccc(COC(=O)Nc2ccc([N+](=O)[O-])cc2)cc1 (stereo unspecified) landed at 11

====

- RUN_DESCRIPTION: Half-life was determined
- Type: ADME
- COND: human
MEASURED_ATTRIBUTE: half-life (min)
Only the number, expressed in min, is required.

Memo: NC(=O)OCc1ccc(N)cc1 , reported half-life: 1.5
